The measured values listed here are drawn from ChEMBL document CHEMBL5247578.

Tested on: SK-MEL-5
assay: Antiproliferative activity against human SK-MEL-5 cells assessed as cell growth inhibition at 10 uM incubated for 48 hrs by sulforhodamine B assay relative to control
Type: functional
Property: inhibition at 10 µM; scope: individual molecules
Numeric only. Scale: %

>>> reported_value("c1ccc(-c2cn3ccnc3c(-c3ccc4ncn(C5CCCCC5)c4c3)n2)cc1")
36.5

IN: Entry under review: CC(=O)c1ccc(-c2cn3ccnc3c(-c3ccc4ncn(C5CCCCC5)c4c3)n2)cc1 . Reported inhibition at 10 µM?
OUT: 24.8

IN: Entry under review: c1ccc(Cn2cnc3ccc(-c4nc(-c5cccc6ccccc56)cn5ccnc45)cc32)cc1 . Reported inhibition at 10 µM?
OUT: 9.69

IN: Entry under review: c1cn2cc(-c3ccc4ncn(C5CCCCC5)c4c3)nc(-c3ccc4ncn(C5CCCCC5)c4c3)c2n1 . Reported inhibition at 10 µM?
OUT: 55.7

IN: Entry under review: Brc1ccc(-c2cn3ccnc3c(-c3ccc4ncn(C5CCCCC5)c4c3)n2)cc1 . Reported inhibition at 10 µM?
OUT: 23.6

IN: Entry under review: Brc1cn2ccnc2c(-c2ccc3ncn(C4CCCCC4)c3c2)n1 . Reported inhibition at 10 µM?
OUT: 13.4
